Assay: AUC (0 to 8 hrs) in human at 150 mg, po TID administered on day 1 followed by 2-days wash out period after which dosing continued up to day 11 measured on day 11
Type: ADME, organism-based
Design: time < 8 hr, dose 150 mg, route oral
Details: plasma
READOUT: AUC at 8 h (µM·h)
The reply should contain only the number, in µM·h.

INPUT: Quick one: AUC at 8 h for "O=C(O)c1n[nH]c2c1C[C@H]1C[C@@H]21" ?
OUTPUT: 0.0879

----------
Test: Tmax in human at 150 mg, po TID administered on day 1 followed by 2-days wash out period after which dosing continued up to day 11 measured on day 4
Format: ADME, organism-based
Conditions: in vivo
READOUT: Tmax (min)
Numbers only; they are read as min.

INPUT: Look up Tmax: "O=C(O)c1n[nH]c2c1C[C@H]1C[C@@H]21"
OUTPUT: 30

----------
Experiment: AUC (0 to 8 hrs) in human at 150 mg, po TID administered on day 1 followed by 2-days wash out period after which dosing continued up to day 11 measured on day 1
Format: ADME, organism-based
Set-up: time < 8 hr, dose 150 mg, route oral
Settings: plasma
READOUT: AUC at 8 h
The number alone won't do; follow it with the unit.

INPUT: State the recorded AUC at 8 h for this entry: "O=C(O)c1n[nH]c2c1C[C@H]1C[C@@H]21"
OUTPUT: 0.102 µM·h

----------
Assay: Cmin in human at titreated dose from day 1 to 4 followed by 200 mg, po QD administered up to day 11 measured on day 4 at 12 hrs
Type: ADME, organism-based
Conditions: in vivo, read-out: Cmin
READOUT: concentration at 12 h
Quick note: number first, unit second.

INPUT: Form field: reported concentration at 12 h of "O=C(O)c1n[nH]c2c1C[C@H]1C[C@@H]21"
OUTPUT: 0.244 nM

----------
Assay: AUC (0 to 12 hrs) in human at 100 mg, po BID administered on day 1 followed by 2-day wash out period after which dosing continued up to day 11 measured on day 1
Type: ADME, organism-based
Set-up: dose 100 mg, time < 12 hr, route oral
Conditions: plasma
READOUT: AUC at 12 h (µM·h)
Supply the numeric figure in µM·h, leaving out any unit text.

INPUT: Name the recorded AUC at 12 h for "O=C(O)c1n[nH]c2c1C[C@H]1C[C@@H]21" .
OUTPUT: 0.0728

----------
Assay: Cmin in human at 150 mg, po TID administered on day 1 followed by 2-days wash out period after which dosing continued up to day 11 measured on day 1 at 8 hrs
Assay type: ADME, organism-based
Conditions: in vivo, read-out: Cmin
READOUT: concentration at 8 h
Please state the value followed by its unit.

INPUT: Can you share its concentration at 8 h? I mean this compound: "O=C(O)c1n[nH]c2c1C[C@H]1C[C@@H]21"
OUTPUT: 0.869 nM

----------
Test: AUC (0 to 6 hrs) in human at 175 mg, po QID administered on day 1 followed by 2-days wash out period after which dosing continued up to day 11 measured on day 1
Assay type: ADME, organism-based
Set-up: time < 6 hr, dose 175 mg, route oral
Settings: plasma
READOUT: AUC at 6 h (µM·h)
Hi! Could you send only the number? It should be in µM·h, unit omitted.

INPUT: # get_value(readout='AUC at 6 h', item= "O=C(O)c1n[nH]c2c1C[C@H]1C[C@@H]21" )
OUTPUT: 0.13

----------
Assay: Apparent half life in human at 50 mg, po BID administered on day 1 followed by 2-day wash out period after which dosing continued up to day 11 measured on day 11
Type: ADME, organism-based
Conditions: in vivo, read-out: t1/2(app) (converted)
READOUT: half-life (h)
Your answer should be a plain number; it is taken to be in h.

INPUT: Field request: half-life | item: "O=C(O)c1n[nH]c2c1C[C@H]1C[C@@H]21"
OUTPUT: 1.9

----------
Experiment: Apparent half life in human at 100 mg, po BID administered on day 1 followed by 2-day wash out period after which dosing continued up to day 11 measured on day 11
Type: ADME, organism-based
Details: in vivo, read-out: t1/2(app) (converted)
READOUT: half-life (h)
Only the number, expressed in h, is required.

INPUT: Using the record for "O=C(O)c1n[nH]c2c1C[C@H]1C[C@@H]21" , report its half-life.
OUTPUT: 2.2

----------
Test: AUC (0 to 12 hrs) in human at 150 mg, po BID administered on day 1 followed by 2-day wash out period after which dosing continued up to day 11 measured on day 11
Type: ADME, organism-based
Parameters: dose 150 mg, time < 12 hr, route oral
Conditions: plasma
READOUT: AUC at 12 h (µM·h)
Write the value in µM·h as a bare number.

INPUT: Record request: AUC at 12 h value, item "O=C(O)c1n[nH]c2c1C[C@H]1C[C@@H]21"
OUTPUT: 0.0788

----------
Test: Tmax in human at 50 mg, po BID administered on day 1 followed by 2-day wash out period after which dosing continued up to day 11 measured on day 11
Format: ADME, organism-based
Conditions: in vivo
READOUT: Tmax (min)
The answer is to be given in min; state only the numeric part.

INPUT: What value of Tmax has been recorded for this entry: "O=C(O)c1n[nH]c2c1C[C@H]1C[C@@H]21"
OUTPUT: 30

----------
Assay: Cmin in human at 175 mg, po QID administered on day 1 followed by 2-days wash out period after which dosing continued up to day 11 measured on day 1 at 6 hrs
Assay type: ADME, organism-based
Conditions: in vivo, read-out: Cmin
READOUT: concentration at 6 h (nM)
I only need the number, in nM, no unit after it.

INPUT: May I ask what concentration at 6 h has been recorded for "O=C(O)c1n[nH]c2c1C[C@H]1C[C@@H]21" ?
OUTPUT: 4.01

----------
Assay: Apparent half life in human at 175 mg, po QID administered on day 1 followed by 2-days wash out period after which dosing continued up to day 11 measured on day 11
Type: ADME, organism-based
Conditions: in vivo, read-out: t1/2(app) (converted)
READOUT: half-life (h)
Report only the number, with the unit h understood.

INPUT: For "O=C(O)c1n[nH]c2c1C[C@H]1C[C@@H]21" , what is its reported half-life?
OUTPUT: 6

----------
Test: Tmax in human at 150 mg, po BID administered on day 1 followed by 2-day wash out period after which dosing continued up to day 11 measured on day 4
Type: ADME, organism-based
Details: in vivo
READOUT: Tmax

INPUT: So what's the measured Tmax for this one? "O=C(O)c1n[nH]c2c1C[C@H]1C[C@@H]21"
OUTPUT: 1.5 h

----------
Assay: Cmin in human at 50 mg, po BID administered on day 1 followed by 2-day wash out period after which dosing continued up to day 11 measured on day 11 at 12 hrs
Format: ADME, organism-based
Conditions: in vivo, read-out: Cmin
READOUT: concentration at 12 h (nM)
The answer is to be given in nM; state only the numeric part.

INPUT: Which value of concentration at 12 h has been reported for "O=C(O)c1n[nH]c2c1C[C@H]1C[C@@H]21" in the records?
OUTPUT: 0.045

----------
Test: Tmax in human at 100 mg, po BID administered on day 1 followed by 2-day wash out period after which dosing continued up to day 11 measured on day 1
Assay type: ADME, organism-based
Conditions: in vivo
READOUT: Tmax (h)
Your answer is read as h, so omit the unit and give the number.

INPUT: Could you share which Tmax value was measured for "O=C(O)c1n[nH]c2c1C[C@H]1C[C@@H]21" ?
OUTPUT: 1

----------
Test: Cmin in human at 150 mg, po TID administered on day 1 followed by 2-days wash out period after which dosing continued up to day 11 measured on day 11 at 8 hrs
Assay type: ADME, organism-based
Details: in vivo, read-out: Cmin
READOUT: concentration at 8 h (nM)
Field: numeric (nM). Do not append units.

INPUT: // query concentration at 8 h value for entry "O=C(O)c1n[nH]c2c1C[C@H]1C[C@@H]21"
OUTPUT: 0.708

----------
Assay: Terminal half life in rhesus monkey
Assay type: ADME, organism-based, Macaca mulatta
Conditions: in vivo, read-out: beta t1/2 (converted)
READOUT: half-life

INPUT: Which half-life reading was recorded for the molecule "O=C(O)c1n[nH]c2c1C[C@H]1C[C@@H]21" ?
OUTPUT: 1.1 h

----------
Experiment: Tmax in human at titreated po dose administered from day 1 to 4 followed by 200 mg, po QD administered up to day 11 measured on day 4
Type: ADME, organism-based
Details: in vivo
READOUT: Tmax (h)
Express the result in h but write the number alone.

INPUT: For "O=C(O)c1n[nH]c2c1C[C@H]1C[C@@H]21" , what is its reported Tmax?
OUTPUT: 1.5
